Tested on: CCRF-CEM
assay.overview: Cytotoxicity against human CCRF-CEM cells assessed as cell viability after 24 hrs by MTT assay
Type: functional, cell-based
endpoint: log10 IC50 (log10 of the value in nM)
All values: log10 IC50 [nM].

compound | log10 IC50
C=C/C(C)=C/C[C@]1(C)[C@H](C)C[C@H](O)[C@@]23C(=C[C@H](OC(=O)c4ccc(O)cc4)C[C@@H]12)[C@@H](OC(C)=O)O[C@H]3OC(C)=O | 3.04
C=C/C(C)=C/C[C@]1(C)[C@H](C)[C@@H](O)[C@H](O)[C@@]23C(=C[C@H](OC)C[C@@H]12)[C@@H](O)O[C@H]3O | 3.63
C=C/C(C)=C/C[C@]1(C)[C@H](C)[C@@H](OC(=O)CCC)[C@H](O)[C@@]23C(=C[C@H](OC)C[C@@H]12)[C@@H](OC(=O)CCC)O[C@H]3OC(C)=O | 2.85

Task: # return recorded log10 IC50 for entry C=CC(=C)CC[C@]1(C)[C@H](C)CC[C@@]23C(C[C@H](OC(C)=O)C[C@@H]12)[C@@H](OC(C)=O)O[C@H]3OC(C)=O (stereo not given in full)
Result: 4.08

Task: # return recorded log10 IC50 for entry `C=C/C(C)=C/C[C@]1(C)[C@H](C)C[C@H](OC(C)=O)[C@@]23C(=C[C@H](OC(=O)c4ccc(O)cc4)C[C@@H]12)[C@@H](OC(C)=O)O[C@H]3OC(C)=O`
Result: 3.08
